molecular target: T1, Human TIM-3 Human Fc tagged protein (human, fluorescently labeled with HiLyte Fluor 555 (sites not given)); assay: capture slide probed with labeled TIM-3-Fc;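 note: IgG from single CD138-enriched plasma cells, isolated from lymphocytes, immobilized on a derivatized glass slide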
T1 construct: Bought construct; also called TIM-3 protein tagged with human Fc; ACROBiosystems catalog no: TM3-H5258
QUANTITY: binding result

- BINDER: "SCT-Fa192 (antibody, V domains shown, murine IgG) VH: QVQLRQSGAELARPGASVKLSCKASGYTFTNYGITWVKQRTGQGLEWIGEIYPRSGNIYYNEKFKGKVTLTADKSSSTAYMELRSLTSEDSAVYFCARSTAVVAGGFDYWGQGTTLTVSS VL: DIVMTQSPSSLTVTTGEKVTVNCKSSQSLLNSRIQKNSLTWYQQKPGQPPKLLIFWASTRESGVPDRFTGSESGTDFTLTISSVQAEDLAIYYCQNDYNYPWTFGGGTKLEIK"
  QUANTITY: "binding result"
  MEASURED_VALUE: "binds"
- BINDER: "SCT-Fa159 (antibody, V domains shown, murine IgG) VH: QVQLQQPGTELVKPGASVKVSCKASGYTFISYWMHWVKQRPGQGLEWIGNIDPNYGGPNYNEKFKTKATLTVDKSSSTAYMQLSSLTSEDSAVYYCARWGWDGFAYWGQGTLVTVSA VL: DAVMTQTPLSLPVSLGDQASISCRSSQSLENSNGNTYLNWYLQKPGQSPQLLIYRVSNRFSGVLDRFSGSGSGTDFTLKISRVEAEDLGVYFCLQITHVPYTFGGGTKLEIK"
  QUANTITY: "binding result"
  MEASURED_VALUE: "binds"
- BINDER: "SCT-Fa094 (antibody, V domains shown, murine IgG) VH: QVLLQQPGAELVRPGTSVKLSCKASGYTFTNFWMHWVKQRPGQGLEWIGVIDPSDISTHYNQNFKGKAILTVDTSSSSAYMQLSSLTSEDSAVYYCARNDYDGGYFDYWGQGTTLTVSS VL: DVVMTQTPLSLPVSLGDQASISCRSSQSLVHGNGNTYLHWYLQKPGQSPKLLIYTVSNRFSGVPDRFSGSGSGTDFTLKISRVEAEDLGVYFCSQTIHAPWTFGGGTKLEIK"
  QUANTITY: "binding result"
  MEASURED_VALUE: "binds"
- BINDER: "SCT-Fa088 (antibody, V domains shown, murine IgG) VH: QIQLQQSGPELVKPGASVKISCKASGYTFTDYYINWVKQRPGQGLEWIGWIYPGSGNTKYNEKFKGKATLTVDTSSSTAYMQLSSLTSEDSAVYFCARAYDYGFAYWGQGTLVTVSA VL: SIVMTQTPKFLLVSAGDRVTITCKASQSVSHGVTWYQQKPGQSPKLLISYASNRYTGVPDRFTGSGYGTDFTFTISTVQAEDLAVYFCQQDYSSPYTFGGGTKLEIK"
  QUANTITY: "binding result"
  MEASURED_VALUE: "binds"
- BINDER: "SCT-Fa103 (antibody, V domains shown, murine IgG) VH: QVQLKQSGAELVRPGTSVKLSCKASGYTLTDYYINWVKQRPGQGLEWIARIYPGNGNTLYNAKFEGKATLTAERSSSTAYMQVSSLTSEDSAVYFCARGGSSVRVYYYAMDFWGQGTSVTVSS VL: DIQMNQSPSSLSASLGDTITITCHASQNINVWLSWYQQKPGNIPKLLIYKASNLHTGVPSRFSGSGSGTGFTLTISSLQPEDIATYYCQQGQSYPLTFGSGTKLEIK"
  QUANTITY: "binding result"
  MEASURED_VALUE: "binds"
- BINDER: "SCT-Fa109 (antibody, V domains shown, murine IgG) VH: QVQLKQSGAELVRPGTSVKLSCKASGYTLTDYYINWVKQRPGQGLEWIARIYPGNGNTYYNEKFKGKATLTAEKSSSTVNMQVTSLTSEDSAIYFCARGGSSDRIYYYAMDYWGQVTSVTVSS VL: DIQMNQSPSSLSASLGDTITITCHASQNINVWLSWYQQKPGNIPKLLIYKASNLHTGVPSRFSGSGSGTGFTLTISSLQPEDIATYYCQQGQSYPLTFGSGTKLEVK"
  QUANTITY: "binding result"
  MEASURED_VALUE: "binds"
- BINDER: "SCT-Fa143 (antibody, V domains shown, murine IgG) VH: QVQLQQPGAELVRSGTSVKLSCKASGYTFISYWMHWVKQRPGQGLEWIGVIDPSDTNTNYNQKFRGKATLTVDTSSSTAYMQLSSLTSEDSAVYFCARNDYDGGYFDYWGQGTTLTVSS VL: DVVMTQTPLSLPGSLGDQASISCRSSQSLVHSNGNTYLHWYLQKSGQSPKLLIYKVSNRFSGVPDRFSGSGSGTDFTLKISRVEAEDLGLYFCSQTTHVPWTFGGGTKLEIK"
  QUANTITY: "binding result"
  MEASURED_VALUE: "binds"
- BINDER: "SCT-Fa138 (antibody, V domains shown, murine IgG) VH: QVQLQQPGAELVRPGTSVKLSCKASGYTFTRYWMHWVRQRPGQGLEWIGVIDPSSSSTDYNQKFKGKATLTVDTSSSTAYMQLSSLTSEDSAVYYCARNDYDGGYFDYWGQGTTLTVSS VL: DVVMTQSPLSLPVSLGDQASISCRSSQSLVHSNGITYLHWYLQKPGQSPNLLIYKVSNRFSGVPDRFSGSGSGTDFTLKISRVEAEDLGVYFCSQTTHVPWTFGGGTKLEIK"
  QUANTITY: "binding result"
  MEASURED_VALUE: "binds"
- BINDER: "SCT-Fa175 (antibody, V domains shown, murine IgG) VH: QVQLQQSGAELVRPGASVTLSCKASGYTFSDYEMHWVKQTPVHGLEWIGVIDPETGDTAYNQKFKDKAVLTADKSSNTAYMELRSLTSEDSAVFFCTSNGYPEHWGQGTTLTVSS VL: QIVLTQSPAIMSASLGERVTMTCTASSGVSSTYLHWYQQRPGSSPKLWIYSTSTLASGVPARFSGSGSGTSYSLTISSMEAEDAATYYCHQYHRSPLTFGAGTKLELK"
  QUANTITY: "binding result"
  MEASURED_VALUE: "binds"
- BINDER: "SCT-Fa166 (antibody, V domains shown, murine IgG) VH: QVQLQQPGTELVKPGASVKVSCKASGYTFVSYWMHWVKQRPGQGLEWIGNIDPNNGGSNYNERFRTKATLTVDKSSSTAYMQLSSLASEDSAVYYCARWGWDGFAYWGQGTLVTVSA VL: DAVMTQTPLSLPVSLGDQASISCRSSQSLENSNGNTYLNWYLQKPGQSPQLLIYRVSTRFSGVLDRFSGSGSGTDFTLKISRVEAEDLGVYFCLQLTHVPYTFGGGTKLEIK"
  QUANTITY: "binding result"
  MEASURED_VALUE: "binds"

src = patent US20230279105A1
